Cited source for all entries: PubChem BioAssay (NCI)

Attribute: TGI
Tested on: HT29 colon
Experiment: NCI tumour cell line growth inhibition, 48 h

Cc1c2cc[n+](C)cc2c(C)c2c1[nH]c1ccc(OC(C)(C)C)cc12; > 100 µM
O=C(Nc1n[nH]c2cc(-c3ccc(F)cc3)ccc12)C1CC1; > 25 µM
Cc1[nH]c(-c2ccccc2)c(O)c1C(=O)OC1CC(C)CCC1C(C)C (stereo not given); 27.5 µM

The reported value for COc1cc(/C=C/[N+](=O)[O-])cc(OC)c1 in terms of TGI is 10.4 µM

The reported value for Clc1ccc(Nc2nnc(COc3ccccc3)c3ccccc23)cc1 in terms of TGI is 4.25 µM

The reported value for C#CCN(Cc1ccc2nc(-c3ccccc3)c(Cl)nc2c1)c1ccc(Cl)c(Cl)c1 in terms of TGI is > 100 µM

The reported value for Cc1nc2cc3[nH]c4ccccc4c(=O)c3cc2s1 in terms of TGI is > 100 µM

The reported value for CCCC(CCC(=O)O)(CCC(=O)O)[N+](=O)[O-] in terms of TGI is > 100 µM

The reported value for CCCCCCCC(=O)[O-].N.N.N.N.N.[Co+3].[O-][Cl+3]([O-])([O-])[O-] in terms of TGI is > 100 µM

The reported value for Cc1cc2nc3c(C)c4ccccc4c(C)n3c2cc1C in terms of TGI is > 10 µM

The reported value for Clc1cc2ns[s+]c2cc1Cl in terms of TGI is > 100 µM

The reported value for Cc1ccc(C2=C(c3ccccc3)C(O)(c3ccccc3)C(c3ccccc3)=C2c2ccc(C)cc2)cc1 in terms of TGI is > 100 µM

The reported value for O/N=C1/C(=C/c2ccc(Br)cc2)CCCC1C(NO)c1ccc(Br)cc1 (stereo not given) in terms of TGI is 35.4 µM

The reported value for C[C@H]1O[C@@H](O[C@H]2[C@@H](O)C[C@H](O[C@H]3[C@@H](O)C[C@H](O[C@H]4CC[C@]5(C)C6CC[C@]7(C)[C@@H](C8=CC(=O)OC8)CC[C@]7(O)C6CC[C@@H]5C4)O[C@@H]3C)O[C@@H]2C)C[C@H](O)[C@@H]1O (stereo not given in full) in terms of TGI is 0.0653 µM

The reported value for CC1NCCC(CC(=O)O)C1CC(=O)O (stereo not given) in terms of TGI is > 100 µM
